Tested on: 855422-203-R-J1-PDC complex spheroid viability
assayExplanation: Anticancer human tumor 855422-203-R-J1-PDC patient-derived bladder carcinoma cell line growth inhibition [POLQ]
recordedConditions: second compound 0.0316 µM; first compound 0.01 µM; active compounds read low
Checkbox rule: viability, T/C lower than 90% = true; viability, T/C not lower than 90% = false.

Some solved entries appear below for comparison.
C=CCn1c(=O)c2cnc(Nc3ccc(N4CCN(C)CC4)cc3)nc2n1-c1cccc(C(C)(C)O)n1 + Cc1cccc(N(C)C(=O)C2C(O)CCN2c2nc(C)cc(C(F)(F)F)c2C#N)c1
false
C=CCn1c(=O)c2cnc(Nc3ccc(N4CCN(C)CC4)cc3)nc2n1-c1cccc(C(C)(C)O)n1 + COC1C(OC(N)=O)C(O)C(Oc2ccc3c(O)c(NC(=O)c4ccc(O)c(CC=C(C)C)c4)c(=O)oc3c2C)OC1(C)C
false
CC[C@@]1(O)C(=O)OCc2c1cc1n(c2=O)Cc2cc3c(CN(C)C)c(O)ccc3nc2-1 + COC1C(OC(N)=O)C(O)C(Oc2ccc3c(O)c(NC(=O)c4ccc(O)c(CC=C(C)C)c4)c(=O)oc3c2C)OC1(C)C
false
CCc1c2c(nc3ccc(O)cc13)-c1cc3c(c(=O)n1C2)COC(=O)[C@]3(O)CC + Nc1ccc(C#CCN(C(=O)Cc2ncc(C(F)(F)F)cc2C(F)(F)F)c2ccc(F)cc2)nn1
true
C=CCn1c(=O)c2cnc(Nc3ccc(N4CCN(C)CC4)cc3)nc2n1-c1cccc(C(C)(C)O)n1 + Nc1ccc(C#CCN(C(=O)Cc2ncc(C(F)(F)F)cc2C(F)(F)F)c2ccc(F)cc2)nn1
false
COc1cccc(OCCCN)c1-c1cc(Nc2cnc(C#N)cn2)n[nH]1 + Cc1cccc(N(C)C(=O)C2C(O)CCN2c2nc(C)cc(C(F)(F)F)c2C#N)c1
false

[Q] Lab note: confirm whether the reported viability, T/C for this compound is below 90%, equality not counting. compound: CC[C@@]1(O)C(=O)OCc2c1cc1n(c2=O)Cc2cc3c(CN(C)C)c(O)ccc3nc2-1 + Cc1cccc(N(C)C(=O)C2C(O)CCN2c2nc(C)cc(C(F)(F)F)c2C#N)c1
[A] true

----------
compounds and their reported viability, T/C
Tested on: 855422-203-R-J1-PDC complex spheroid viability
assayExplanation: Anticancer human tumor 855422-203-R-J1-PDC cell line growth inhibition [POLQ];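 further: spheroids exposed to compounds for seven days before readout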
recordedConditions: second compound 0.316 µM; first compound 0.316 µM; active compounds read low
Express it in %; write the number only.

The following compounds have reported results that may help.
CC1COCCN1c1cc(-c2ccnn2C)c2ccnc(-c3ccn[nH]3)c2n1 (stereo unspecified) + Cc1cccc(N(C)C(=O)C2C(O)CCN2c2nc(C)cc(C(F)(F)F)c2C#N)c1
20.4
CNCc1ccc(-c2[nH]c3cc(F)cc4c3c2CCNC4=O)cc1 + COC1C(OC(N)=O)C(O)C(Oc2ccc3c(O)c(NC(=O)c4ccc(O)c(CC=C(C)C)c4)c(=O)oc3c2C)OC1(C)C
99.5

[Q] So what does the record say about viability, T/C for O=C(Nc1ccc(O)c(NS(=O)(=O)c2ccc(F)cc2)c1)c1ccc(-c2ccccc2)cc1 + COC1C(OC(N)=O)C(O)C(Oc2ccc3c(O)c(NC(=O)c4ccc(O)c(CC=C(C)C)c4)c(=O)oc3c2C)OC1(C)C ?
[A] 113

[Q] Moving on to the next compound: CC(C)n1c(=O)n(C)c2cnc3cc(F)c(-c4ccc(OCCCN5CCCCC5)nc4)cc3c21 + Cc1cccc(N(C)C(=O)C2C(O)CCN2c2nc(C)cc(C(F)(F)F)c2C#N)c1
[A] 99.6

[Q] Moving on to the next compound: COc1cc(C2c3cc4c(cc3C(OC3OC5COC(C)OC5C(O)C3O)C3COC(=O)C23)OCO4)cc(OC)c1O (stereo unspecified) + Nc1ccc(C#CCN(C(=O)Cc2ncc(C(F)(F)F)cc2C(F)(F)F)c2ccc(F)cc2)nn1
[A] 66.1

[Q] Moving on to the next compound: COc1cccc(OCCCN)c1-c1cc(Nc2cnc(C#N)cn2)n[nH]1 + Nc1ccc(C#CCN(C(=O)Cc2ncc(C(F)(F)F)cc2C(F)(F)F)c2ccc(F)cc2)nn1
[A] 7.07

[Q] Moving on to the next compound: CCc1c2c(nc3ccc(O)cc13)-c1cc3c(c(=O)n1C2)COC(=O)[C@]3(O)CC + Cc1cccc(N(C)C(=O)C2C(O)CCN2c2nc(C)cc(C(F)(F)F)c2C#N)c1
[A] 2.86

[Q] Moving on to the next compound: COc1cccc2c1C(=O)c1c(O)c3c(c(O)c1C2=O)CC(O)(C(=O)CO)CC3OC1CC(N)C(O)C(C)O1 (stereo unspecified) + COC1C(OC(N)=O)C(O)C(Oc2ccc3c(O)c(NC(=O)c4ccc(O)c(CC=C(C)C)c4)c(=O)oc3c2C)OC1(C)C
[A] 1.84

[Q] Moving on to the next compound: CC1COCCN1c1cc(C2(O)CC3CCC(C2)O3)c2cnn(-c3ccn[nH]3)c2n1 (stereo unspecified) + Cc1cccc(N(C)C(=O)C2C(O)CCN2c2nc(C)cc(C(F)(F)F)c2C#N)c1
[A] 16.4

[Q] Moving on to the next compound: COc1cc2cc(C(=O)CCC(=O)O)sc2cc1OC + Cc1cccc(N(C)C(=O)C2C(O)CCN2c2nc(C)cc(C(F)(F)F)c2C#N)c1
[A] 103

[Q] Moving on to the next compound: COc1cccc(OCCCN)c1-c1cc(Nc2cnc(C#N)cn2)n[nH]1 + Cc1cccc(N(C)C(=O)C2C(O)CCN2c2nc(C)cc(C(F)(F)F)c2C#N)c1
[A] 7.31

[Q] Moving on to the next compound: C=CCn1c(=O)c2cnc(Nc3ccc(N4CCN(C)CC4)cc3)nc2n1-c1cccc(C(C)(C)O)n1 + Nc1ccc(C#CCN(C(=O)Cc2ncc(C(F)(F)F)cc2C(F)(F)F)c2ccc(F)cc2)nn1
[A] 110

[Q] Moving on to the next compound: CC1COCCN1c1cc(-c2ccnn2C)c2ccnc(-c3ccn[nH]3)c2n1 (stereo unspecified) + COC1C(OC(N)=O)C(O)C(Oc2ccc3c(O)c(NC(=O)c4ccc(O)c(CC=C(C)C)c4)c(=O)oc3c2C)OC1(C)C
[A] 24.1

[Q] Moving on to the next compound: CCc1c2c(nc3ccc(O)cc13)-c1cc3c(c(=O)n1C2)COC(=O)[C@]3(O)CC + COC1C(OC(N)=O)C(O)C(Oc2ccc3c(O)c(NC(=O)c4ccc(O)c(CC=C(C)C)c4)c(=O)oc3c2C)OC1(C)C
[A] 4.86

[Q] Moving on to the next compound: CC1COCCN1c1cc(C2(O)CC3CCC(C2)O3)c2cnn(-c3ccn[nH]3)c2n1 (stereo unspecified) + COC1C(OC(N)=O)C(O)C(Oc2ccc3c(O)c(NC(=O)c4ccc(O)c(CC=C(C)C)c4)c(=O)oc3c2C)OC1(C)C
[A] 18.9

[Q] Moving on to the next compound: CC1COCCN1c1cc(C2(O)CC3CCC(C2)O3)c2cnn(-c3ccn[nH]3)c2n1 (stereo unspecified) + Nc1ccc(C#CCN(C(=O)Cc2ncc(C(F)(F)F)cc2C(F)(F)F)c2ccc(F)cc2)nn1
[A] 18.5

[Q] Moving on to the next compound: COc1cc2cc(C(=O)CCC(=O)O)sc2cc1OC + Nc1ccc(C#CCN(C(=O)Cc2ncc(C(F)(F)F)cc2C(F)(F)F)c2ccc(F)cc2)nn1
[A] 90

[Q] Moving on to the next compound: CCc1cc2c(N3CCc4c(cc(Cn5ccnc5)cc4-c4cn(C)nc4C(F)(F)F)C3=O)cc(C)nc2c(OC)n1 + Cc1cccc(N(C)C(=O)C2C(O)CCN2c2nc(C)cc(C(F)(F)F)c2C#N)c1
[A] 103

[Q] Moving on to the next compound: CC1COCCN1c1cc(C2(S(C)(=N)=O)CC2)nc(-c2ccnc3[nH]ccc23)n1 (stereo unspecified) + Cc1cccc(N(C)C(=O)C2C(O)CCN2c2nc(C)cc(C(F)(F)F)c2C#N)c1
[A] 101

[Q] Moving on to the next compound: CC1COCCN1c1cc(-c2ccnn2C)c2ccnc(-c3ccn[nH]3)c2n1 (stereo unspecified) + Nc1ccc(C#CCN(C(=O)Cc2ncc(C(F)(F)F)cc2C(F)(F)F)c2ccc(F)cc2)nn1
[A] 30

[Q] Moving on to the next compound: CC1COCCN1c1cc(C2(S(C)(=N)=O)CC2)nc(-c2ccnc3[nH]ccc23)n1 (stereo unspecified) + COC1C(OC(N)=O)C(O)C(Oc2ccc3c(O)c(NC(=O)c4ccc(O)c(CC=C(C)C)c4)c(=O)oc3c2C)OC1(C)C
[A] 117
